The origin of these recorded values is ChEMBL document CHEMBL5375989.

# System: PANC-1
# testName: Antiproliferative activity against human PANC-1 cells assessed as inhibition of cell growth measured after 48 hrs by MTT assay
# Format: functional, cell-based
# testContext: Homo sapiens, PANC-1, 48 h
pIC50: −log10 of the molar value.
assayMetric: pIC50

>>> measurement("COCC[n+]1c2c(n(Cc3cnccn3)c1C)C(=O)c1ccccc1C2=O.[Br-] [SEPANTRONIUM BROMIDE]")
8.00
>>> measurement("Cn1c[n+](C)c2c1C(=O)c1cc3ccccc3cc1C2=O.[Br-]")
7.05

====

# testName: Antiproliferative activity against mouse L929 cells assessed as inhibition of cell growth measured after 48 hrs by MTT assay
# Assay type: toxicity, cell-based
# testContext: mouse, L929 cells
assayMetric: IC50 at 48 h

>>> measurement("Cn1c[n+](C)c2c1C(=O)c1cc3ccccc3cc1C2=O.[Br-]")
"13.6 µM"
>>> measurement("Cn1c2c([n+](C)c1-c1ccco1)C(=O)c1ccccc1C2=O")
"7 µM"
>>> measurement("CCC(C)Cn1c2c([n+](C)c1C)C(=O)c1cc3ccccc3cc1C2=O (configuration not stated)")
"43.5 µM"
>>> measurement("CC(C)n1c[n+](C)c2c1C(=O)c1cc3ccccc3cc1C2=O")
"84 µM"
>>> measurement("C[n+]1cn(Cc2ccc(F)cc2)c2c1C(=O)c1cc3ccccc3cc1C2=O")
"41.1 µM"
>>> measurement("CCn1c2c([n+](C)c1C)C(=O)c1cc3ccccc3cc1C2=O")
"23.3 µM"
>>> measurement("CC(C)CCn1c[n+](C)c2c1C(=O)c1cc3ccccc3cc1C2=O")
"> 16.4 µM"
>>> measurement("O=C1c2ccccc2C(=O)c2c1n(Cc1ccccc1)c[n+]2Cc1ccccc1")
"39 µM"
>>> measurement("CCCCn1c2c([n+](C)c1C)C(=O)c1cc3ccccc3cc1C2=O")
"13.6 µM"
>>> measurement("CCC(C)Cn1c[n+](C)c2c1C(=O)c1cc3ccccc3cc1C2=O (configuration not stated)")
"83.9 µM"
>>> measurement("COc1ccc(Cn2c[n+](C)c3c2C(=O)c2cc4ccccc4cc2C3=O)cc1")
"64.4 µM"
>>> measurement("Cc1n(Cc2ccccc2F)c2c([n+]1C)C(=O)c1cc3ccccc3cc1C2=O")
"12.6 µM"
>>> measurement("CC(C)=CCn1c[n+](C)c2c1C(=O)c1cc3ccccc3cc1C2=O")
"58.7 µM"
>>> measurement("O=C1c2ccccc2C(=O)c2c1n(-c1ccccc1)c[n+]2-c1ccccc1")
"66.9 µM"
>>> measurement("CCCn1c2c([n+](C)c1C)C(=O)c1cc3ccccc3cc1C2=O")
"22.1 µM"
>>> measurement("Cc1n(CC#N)c2c([n+]1C)C(=O)c1cc3ccccc3cc1C2=O")
"9.57 µM"
>>> measurement("CCn1c[n+](CC)c2c(OC)ccc(OC)c21")
"95.1 µM"
>>> measurement("Cc1n(Cc2ccc(F)cc2)c2c([n+]1C)C(=O)c1cc3ccccc3cc1C2=O")
"76.8 µM"
>>> measurement("CCn1c2c([n+](CC)c1C)C(=O)c1cc3ccccc3cc1C2=O")
"33.8 µM"
>>> measurement("COCCn1c[n+](CCOC)c2c1C(=O)c1ccccc1C2=O")
"9.9 µM"
>>> measurement("Cc1n(C)c2c([n+]1C)C(=O)c1ccccc1C2=O")
"2.2 µM"
>>> measurement("Cc1n(Cc2ccccc2)c2c([n+]1C)C(=O)c1cc3ccccc3cc1C2=O")
"30.6 µM"
